Origin of the recorded values: PubChem BioAssay AID493091

Biological target: Carboxy-terminal domain RNA polymerase II polypeptide A small phosphatase 1 (Homo sapiens)
Experiment: Scp-1 phosphatase inhibitors, primary screen, biochemical, colorimetric, uHTS (AID 493091)
Details: Recombinant Scp1, phosphopeptide, malachite green phosphate absorbance; at 20 µM
In all, about 340,000 compounds went through this assay and about 3,000 (0.88%) were called active.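 How the source made its calls: active means inhibition above about 50% at 20 µM (limit read from the data); inactive means the rest.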 The full list was thinned out, with actives kept by preference.
Assign a class; possible classes are active, inactive

Prompt: Write down the call the test reported for this molecule. Item: Cc1ccc(C(=O)Nc2nc(N)n(-c3ccccc3)n2)cc1
Response: inactive

Prompt: Per the assay record, what outcome was assigned to CC[n+]1c(C)n(-c2ccccc2)c2ccc(NC(C)=O)cc21 ?
Response: active

Prompt: Hi, do you know how CC1=NN(C(=O)CCCc2ccccc2)C(O)(C(F)(F)F)C1 (configuration not stated) came out in this test?
Response: inactive

Prompt: Which outcome was assigned to CC(C)C(O)C1CCN(Cc2nc(Cc3ccccc3Cl)no2)CC1 (configuration not stated) in this test?
Response: inactive

More entries:
Prompt: Any idea what this test logged for Cc1cccc(Cn2cnc3c(N)c(C)c(C)cc32)c1 ?
Response: inactive

Prompt: Hi, do you know how C=CCOc1ccc(/C=C/C(=O)OCC(=O)NC2CCCCCC2)cc1 came out in this test?
Response: inactive

Prompt: In this assay, the call recorded for CCCCCN1CC(O)=C(c2ccccc2)C1=N was what?
Response: inactive
